Please provide measured viability, T/C for the entries that follow.
Test system: 922993-354-T-J3-PDC complex spheroid viability;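 further: spheroids exposed to the agents for one week; 100% = DMSO vehicle control wells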
test.name: Anticancer human tumor 922993-354-T-J3-PDC patient-derived endometrial carcinoma cell line growth inhibition [POLQ]
experimental.context: second compound 0.1 µM; first compound 1 µM; active compounds read low
Answers are plain numbers, in %.

Please provide the recorded viability, T/C for COc1ccc([C@@H](O)c2cc(-c3ncnc4cc(N5CCOCC5)ccc34)c(F)cc2Cl)nn1 + COC1C(OC(N)=O)C(O)C(Oc2ccc3c(O)c(NC(=O)c4ccc(O)c(CC=C(C)C)c4)c(=O)oc3c2C)OC1(C)C , tested on 922993-354-T-J3-PDC complex spheroid viability.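 Further: spheroids exposed to the agents for one week; 100% = DMSO vehicle control wells.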
79.6

Short answer please: viability, T/C, 922993-354-T-J3-PDC complex spheroid viability, entry COc1cc2cc(C(=O)CCC(=O)O)sc2cc1OC + Nc1ccc(C#CCN(C(=O)Cc2ncc(C(F)(F)F)cc2C(F)(F)F)c2ccc(F)cc2)nn1
95.6

Look up viability, T/C with 922993-354-T-J3-PDC complex spheroid viability for this molecule: CCCS(=O)(=O)Nc1ccc(F)c(C(=O)c2c[nH]c3ncc(-c4ccc(Cl)cc4)cc23)c1F + COC1C(OC(N)=O)C(O)C(Oc2ccc3c(O)c(NC(=O)c4ccc(O)c(CC=C(C)C)c4)c(=O)oc3c2C)OC1(C)C
110

Items follow; give viability, T/C for each.
1. COc1cc2cc(C(=O)CCC(=O)O)sc2cc1OC + Cc1cccc(N(C)C(=O)C2C(O)CCN2c2nc(C)cc(C(F)(F)F)c2C#N)c1
2. CCc1c2c(nc3ccc(O)cc13)-c1cc3c(c(=O)n1C2)COC(=O)[C@]3(O)CC + Nc1ccc(C#CCN(C(=O)Cc2ncc(C(F)(F)F)cc2C(F)(F)F)c2ccc(F)cc2)nn1

1: 102; 2: 24.8
